- Tested On: Gamma-aminobutyric acid receptor subunit rho-1 (Homo sapiens)
- Sequence (P24046 whole entry): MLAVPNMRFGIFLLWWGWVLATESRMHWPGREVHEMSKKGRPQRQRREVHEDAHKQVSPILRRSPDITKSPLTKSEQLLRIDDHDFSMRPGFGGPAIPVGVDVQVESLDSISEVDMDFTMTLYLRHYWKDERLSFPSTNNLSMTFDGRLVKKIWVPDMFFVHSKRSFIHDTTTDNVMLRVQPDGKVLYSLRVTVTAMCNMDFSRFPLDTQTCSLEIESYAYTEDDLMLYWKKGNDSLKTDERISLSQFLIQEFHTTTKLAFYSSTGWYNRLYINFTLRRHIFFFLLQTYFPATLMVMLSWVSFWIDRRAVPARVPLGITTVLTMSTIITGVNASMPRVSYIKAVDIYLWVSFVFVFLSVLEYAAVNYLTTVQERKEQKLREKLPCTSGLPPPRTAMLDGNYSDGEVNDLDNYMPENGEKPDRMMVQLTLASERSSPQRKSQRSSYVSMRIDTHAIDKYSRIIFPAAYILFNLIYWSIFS
- Assay: Agonist activity at human GABAA rho1 receptor expressed in TSA201 cells after 1 min by FLIPR assay
- Format: cell-based
Quick reference for EC50 among some compounds

- Compound: "CCc1nn(O)cc1CN"
  EC50: "> 500 µM"
- Compound: "NCc1cn(O)nc1-c1ccc(-c2ccccc2)cc1"
  EC50: "> 500 µM"
- Compound: "Cc1c(CN)cnn1O"
  EC50: "> 500 µM"
- Compound: "NCc1cc(O)no1 [MUSCIMOL]"
  EC50: "0.7 µM"
- Compound: "NCc1cn(O)nc1-c1ccccc1"
  EC50: "> 500 µM"
- Compound: "NCc1cn(O)nc1I"
  EC50: "> 500 µM"
- Compound: "NCc1cnn(O)c1Cl"
  EC50: "> 500 µM"
- Compound: "NCc1cnn(O)c1"
  EC50: "3.1 µM"
- Compound: "NCc1cn(O)nc1-c1cccc(-c2ccccc2)c1"
  EC50: "> 500 µM"

###

- Tested On: GABA-A receptor; alpha-1/beta-2/gamma-2 (Homo sapiens, UniProt P14867+P18507+P47870)
- Sequence (P14867 whole entry): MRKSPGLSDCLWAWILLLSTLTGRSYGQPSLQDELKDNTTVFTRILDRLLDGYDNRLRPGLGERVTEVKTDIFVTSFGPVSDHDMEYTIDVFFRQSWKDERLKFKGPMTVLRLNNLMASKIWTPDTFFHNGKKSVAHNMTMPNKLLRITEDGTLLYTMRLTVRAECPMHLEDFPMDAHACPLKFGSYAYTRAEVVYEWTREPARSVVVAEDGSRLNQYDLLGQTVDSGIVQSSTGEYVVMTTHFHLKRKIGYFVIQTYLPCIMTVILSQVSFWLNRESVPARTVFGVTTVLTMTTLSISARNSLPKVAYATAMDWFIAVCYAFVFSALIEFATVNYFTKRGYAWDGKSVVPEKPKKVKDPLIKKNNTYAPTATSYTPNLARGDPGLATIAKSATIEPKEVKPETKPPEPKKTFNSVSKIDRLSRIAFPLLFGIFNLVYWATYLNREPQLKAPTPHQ
- Sequence (P47870 whole entry): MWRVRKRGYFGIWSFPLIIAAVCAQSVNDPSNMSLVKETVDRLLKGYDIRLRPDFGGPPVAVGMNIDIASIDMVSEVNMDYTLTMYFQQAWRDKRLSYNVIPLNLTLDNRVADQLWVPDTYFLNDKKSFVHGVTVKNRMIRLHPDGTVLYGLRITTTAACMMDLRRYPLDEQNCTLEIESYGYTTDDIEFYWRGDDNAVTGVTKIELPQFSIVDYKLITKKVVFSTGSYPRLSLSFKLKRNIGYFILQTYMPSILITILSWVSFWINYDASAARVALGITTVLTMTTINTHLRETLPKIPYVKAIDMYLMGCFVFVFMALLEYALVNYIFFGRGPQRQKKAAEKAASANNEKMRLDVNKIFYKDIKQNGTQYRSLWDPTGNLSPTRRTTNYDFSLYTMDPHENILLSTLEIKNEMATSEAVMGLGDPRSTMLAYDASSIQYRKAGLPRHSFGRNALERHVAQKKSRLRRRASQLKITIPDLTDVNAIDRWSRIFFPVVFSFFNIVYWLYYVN
- Sequence (P18507 whole entry): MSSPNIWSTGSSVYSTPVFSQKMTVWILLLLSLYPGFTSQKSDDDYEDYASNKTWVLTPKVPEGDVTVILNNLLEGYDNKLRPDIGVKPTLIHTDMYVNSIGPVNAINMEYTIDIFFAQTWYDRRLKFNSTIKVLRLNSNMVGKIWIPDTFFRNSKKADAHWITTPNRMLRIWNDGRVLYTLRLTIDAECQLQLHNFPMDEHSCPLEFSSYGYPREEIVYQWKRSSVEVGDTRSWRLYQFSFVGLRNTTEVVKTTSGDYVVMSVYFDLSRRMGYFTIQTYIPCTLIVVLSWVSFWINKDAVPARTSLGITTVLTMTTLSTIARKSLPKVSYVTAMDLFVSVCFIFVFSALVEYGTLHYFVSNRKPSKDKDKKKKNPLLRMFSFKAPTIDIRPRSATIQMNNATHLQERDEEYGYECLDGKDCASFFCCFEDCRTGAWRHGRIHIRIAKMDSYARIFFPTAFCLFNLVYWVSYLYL
- Assay: Agonist activity at human GABAA alpha1beta2gamma2S receptor expressed in TSA201 cells after 1 min by FLIPR assay
- Assay type: cell-based
pEC50: −log10 of the molar value.
Value Type: pEC50

- Smiles Input: "NCc1cn(O)nc1-c1ccccc1"
  Tested On: "GABA-A receptor; alpha-1/beta-2/gamma-2 (Homo sapiens, UniProt P14867+P18507+P47870)"
  Observed Measurement: "< 3.30"
- Smiles Input: "NCc1cn(O)nc1I"
  Tested On: "GABA-A receptor; alpha-1/beta-2/gamma-2 (Homo sapiens, UniProt P14867+P18507+P47870)"
  Observed Measurement: "< 3.30"
- Smiles Input: "CCc1nn(O)cc1CN"
  Tested On: "GABA-A receptor; alpha-1/beta-2/gamma-2 (Homo sapiens, UniProt P14867+P18507+P47870)"
  Observed Measurement: "< 3.30"
- Smiles Input: "NCc1cn(O)nc1-c1ccc(-c2ccccc2)cc1"
  Tested On: "GABA-A receptor; alpha-1/beta-2/gamma-2 (Homo sapiens, UniProt P14867+P18507+P47870)"
  Observed Measurement: "< 3.52"
- Smiles Input: "Cc1c(CN)cnn1O"
  Tested On: "GABA-A receptor; alpha-1/beta-2/gamma-2 (Homo sapiens, UniProt P14867+P18507+P47870)"
  Observed Measurement: "< 3.30"
- Smiles Input: "NCc1cn(O)nc1-c1cccc(-c2ccccc2)c1"
  Tested On: "GABA-A receptor; alpha-1/beta-2/gamma-2 (Homo sapiens, UniProt P14867+P18507+P47870)"
  Observed Measurement: "< 3.30"
